The reader will find IC50 measurements below, all made with neuraminidase (Influenza A virus).
Sequence (P03468 whole entry): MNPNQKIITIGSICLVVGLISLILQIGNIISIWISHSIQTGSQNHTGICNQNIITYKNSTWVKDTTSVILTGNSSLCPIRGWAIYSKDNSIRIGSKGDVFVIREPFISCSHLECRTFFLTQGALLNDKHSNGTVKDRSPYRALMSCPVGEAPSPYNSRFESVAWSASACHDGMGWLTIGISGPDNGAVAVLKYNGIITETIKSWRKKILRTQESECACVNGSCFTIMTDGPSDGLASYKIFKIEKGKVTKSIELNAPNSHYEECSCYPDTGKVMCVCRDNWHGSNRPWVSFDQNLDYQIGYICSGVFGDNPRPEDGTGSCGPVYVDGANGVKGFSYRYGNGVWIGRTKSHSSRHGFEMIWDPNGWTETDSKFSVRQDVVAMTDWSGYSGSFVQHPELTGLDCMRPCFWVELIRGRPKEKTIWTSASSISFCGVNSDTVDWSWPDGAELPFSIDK

[
  {
    "compound": "CC(=O)N[C@@H]1[C@@H](N)CC(C(=O)O)=C[C@H]1OCC(O)CO (some centres unmarked) [compound 8]",
    "IC50": "1000 to 10000 nM"
  },
  {
    "compound": "CC(=O)NC1C(O)C=C(C(=O)O)CC1NC(=N)N (centres unmarked) [compound 94]",
    "IC50": "< 1000 nM"
  }
]
